Subject Of Test: K-Ras G12C (Homo sapiens, UniProt P01116, G12C)
Experiment Summary: K-Ras G12C, SOS1, Raf RBD HTRF assay for inhibition of GTP exchange
Settings: 18 hours preincubation with K-Ras G12C at room temperature; SOS1-mediated GTP exchange
Sequence (P01116 2-188 isoform P01116-2 G12C): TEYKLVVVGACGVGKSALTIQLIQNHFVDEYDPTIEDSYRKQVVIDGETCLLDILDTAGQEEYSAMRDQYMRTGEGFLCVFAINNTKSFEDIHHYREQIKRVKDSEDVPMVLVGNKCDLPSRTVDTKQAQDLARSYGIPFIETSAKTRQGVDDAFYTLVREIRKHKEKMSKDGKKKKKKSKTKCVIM
Attribute Measured: pIC50
A value of pIC50 is the negative decimal logarithm of a concentration given in moles per litre.

{"Compound": "C=CC(=O)N1CCN(c2nc(OC[C@@H]3CCCN3C)nc3c2CC[C@H](c2cc(O)cc4ccccc24)C3)C[C@H]1CC#N (single isomer, unassigned) [Example 58c]", "Subject Of Test": "K-Ras G12C (Homo sapiens, UniProt P01116, G12C)", "Result Value": 7.54}
{"Compound": "C=CC(=O)N1CCN(c2nc(OC[C@@H]3CCCN3C)nc3c2CC[C@@H](c2cc(O)cc4ccccc24)C3)C[C@@H]1CC#N (single isomer, unassigned) [Example 58d]", "Subject Of Test": "K-Ras G12C (Homo sapiens, UniProt P01116, G12C)", "Result Value": 7.62}
{"Compound": "C=CC(=O)N1CCN(c2nc(OCC3CCCN3C)nc3c2CCC(c2cc(O)cc4ccccc24)C3)C(CC#N)C1 (centres unmarked) [Example 60]", "Subject Of Test": "K-Ras G12C (Homo sapiens, UniProt P01116, G12C)", "Result Value": 7.59}
{"Compound": "C=CC(=O)N1CCN(c2nc(OC[C@@H]3COC(=O)N3C)nc3c2CC[C@@H](c2cc(O)cc4ccccc24)C3)[C@@H](C)C1 (single isomer, unassigned) [Example 57b]", "Subject Of Test": "K-Ras G12C (Homo sapiens, UniProt P01116, G12C)", "Result Value": 4.85}

Next compound, pIC50 to be filled in.
Query: Entry C=C(F)C(=O)N1CCN(c2nc(OC[C@@H]3CCCN3C)nc3c2CC[C@H](c2cc(O)cc4ccccc24)C3)C[C@H]1CC#N (single isomer, unassigned) [Example 61b] has what pIC50?
Response: 6.19

---

The following compounds are listed with their measured EC50 values.
Subject Of Test: K-Ras G12C (Homo sapiens, UniProt P01116, G12C)
Experiment Summary: Western blot assay for in cell alkylation of K-Ras G12C (HCC1171 cells)
Settings: 18 hours at 37° C., 7 point dose response
Sequence (P01116 1-188 isoform P01116-2 G12C): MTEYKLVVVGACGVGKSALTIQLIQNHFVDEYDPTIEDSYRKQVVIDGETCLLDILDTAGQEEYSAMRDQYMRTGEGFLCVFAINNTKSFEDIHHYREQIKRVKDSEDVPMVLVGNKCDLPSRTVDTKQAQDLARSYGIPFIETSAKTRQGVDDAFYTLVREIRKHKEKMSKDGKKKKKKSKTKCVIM
Answer in nM, number only, no unit symbol.

Here's what some known entries look like.
{"Compound": "C=CC(=O)N1CCN(c2nc(OCC[C@@H]3CCCN3C)nc3c2CCC(c2cc(O)cc4ccccc24)C3)CC1 (stereo partly drawn) [Example 52a]", "Quantity Unit": "nM", "EC50": 990}
{"Compound": "C=CC(=O)N1CCN(c2nc(OC[C@@H]3CCCN3C)nc3c2CC[C@@H](c2cc(O)cc4ccccc24)C3)C[C@@H]1CC#N (single isomer, unassigned) [Example 58d]", "Quantity Unit": "nM", "EC50": 6.3}

Next compound, EC50 to be filled in.
Query: Entry C=CC(=O)N1CCN(c2ncnc3c2C[C@@H](C)[C@H](c2cc(CO)ccc2C)C3)CC1 (single isomer, unassigned) has what EC50?
Response: 1300

---

Subject Of Test: K-Ras G12C (Homo sapiens, UniProt P01116, G12C)
Experiment Summary: Western blot assay for in cell alkylation of K-Ras G12C (HCC1171 cells)
Settings: 18 hours at 37° C., 7 point dose response
Attribute Measured: EC50
Answer shape: numeric part, then the unit.

Query: Entry C=C(F)C(=O)N1CCN(c2nc(OC[C@@H]3CCCN3C)nc3c2CC[C@H](c2cc(O)cc4ccccc24)C3)C[C@@H]1CC#N (single isomer, unassigned) [Example 61c] has what EC50?
Response: 1800 nM

---

Subject Of Test: K-Ras G12C (Homo sapiens, UniProt P01116, G12C)
Experiment Summary: Western blot assay for in cell alkylation of K-Ras G12C (HCC1171 cells)
Settings: 18 hours at 37° C., 7 point dose response
The following molecules are listed with their measured log10(EC50) values.
log10 EC50, nM

Here's what some known entries look like.
{"Molecule": "C=CC(=O)N1CCN(c2nc(OC[C@@H]3CCCN3C)nc3c2C[C@@H](C)[C@H](c2c(F)c(N)cc(C)c2C(F)(F)F)C3)[C@@H](C)C1 (single isomer, unassigned) [Example 12b]", "Result Value": 0.52}
{"Molecule": "C=CC(=O)N1CCN(c2nc(OC[C@@H]3CCCN3C)nc3c2CCC(c2cc(O)cc4ccccc24)C3)CC1 (stereo partly drawn) [Example 49a]", "Result Value": 2.23}
{"Molecule": "C=CC(=O)N1CCN(c2ncnc3c2CC(C(C)C)C(c2cc(O)cc4ccccc24)C3)CC1 (stereo not drawn) [Example 16]", "Result Value": 3.08}
{"Molecule": "C=C(F)C(=O)N1CCN(c2nc(OC[C@@H]3CCCN3C)nc3c2C[C@H](C)[C@@H](c2c(F)c(N)cc(C)c2C(F)(F)F)C3)C[C@H]1CC#N (single isomer, unassigned) [Example 34b]", "Result Value": 3.08}
{"Molecule": "C=CC(=O)N1CCN(c2ncnc3c2CC[C@H](c2cncc4ccccc24)C3)CC1 (single isomer, unassigned) [Example 44b]", "Result Value": 3.00}

Next molecule, log10(EC50) to be filled in.
Query: Entry C=CC(=O)N1CCN(c2nc(OC[C@@H]3CCCN3C)nc3c2C[C@@H](C)[C@H](c2cccc4c2CCC4)C3)C[C@H]1CC#N (single isomer, unassigned) [Example 35b] has what log10(EC50)?
Response: 1.23

---

Subject Of Test: K-Ras G12C (Homo sapiens, UniProt P01116, G12C)
Experiment Summary: K-Ras G12C, SOS1, Raf RBD HTRF assay for inhibition of GTP exchange
Settings: 18 hours preincubation with K-Ras G12C at room temperature; SOS1-mediated GTP exchange
The following molecules are listed with their measured IC50 values.

Here's what some known entries look like.
{"Molecule": "C=CC(=O)N1CCN(c2nc(OC[C@@H]3CCCN3C)nc3c2C[C@@H](C)[C@H](c2cccc4c2CCC4)C3)C[C@H]1CC#N (single isomer, unassigned) [Example 35b]", "Subject Of Test": "K-Ras G12C (Homo sapiens, UniProt P01116, G12C)", "Result Value": "11 nM"}
{"Molecule": "CN1CCC[C@H]1COc1nc2c(c(N3CCN(C(=O)/C=C/CF)[C@@H](CC#N)C3)n1)CC[C@@H](c1cc(O)cc3ccccc13)C2 (single isomer, unassigned) [Example 62e]", "Subject Of Test": "K-Ras G12C (Homo sapiens, UniProt P01116, G12C)", "Result Value": "660 nM"}
{"Molecule": "C#CC[C@H]1CN(c2nc(OC[C@@H]3CCCN3C)nc3c2C[C@H](C)[C@@H](c2cccc4c2CCC4)C3)CCN1C(=O)C=C (single isomer, unassigned) [Example 40b]", "Subject Of Test": "K-Ras G12C (Homo sapiens, UniProt P01116, G12C)", "Result Value": "560 nM"}
{"Molecule": "C=CC(=O)N1CCN(c2ncnc3c2CC[C@@H](c2cncc4ccccc24)C3)CC1 (single isomer, unassigned) [Example 44a]", "Subject Of Test": "K-Ras G12C (Homo sapiens, UniProt P01116, G12C)", "Result Value": "> 50000 nM"}

Next molecule, IC50 to be filled in.
Query: Find the measured IC50: item C=CC(=O)N1CCN(c2nc(OC[C@@H]3CCCN3C)nc3c2C[C@H](C)[C@@H](c2c(C(F)(F)F)ccc(N)c2F)C3)[C@@H](C)C1 (single isomer, unassigned) [Example 23a] , target or system K-Ras G12C (Homo sapiens, UniProt P01116, G12C).
Response: 720 nM

---

Subject Of Test: K-Ras G12C (Homo sapiens, UniProt P01116, G12C)
Experiment Summary: Western blot assay for in cell alkylation of K-Ras G12C (HCC1171 cells)
Settings: 18 hours at 37° C., 7 point dose response
pEC50: −log10 of the molar value.
Rule: pEC50 of 6 or more gives Condition met; anything lower gives Condition not met.

{"Compound": "C=CC(=O)N1CCN(c2ncnc3c2C[C@H](C)[C@H](c2nc(N)cc(C)c2C(F)(F)F)C3)CC1 (single isomer, unassigned)", "Label": "Condition not met"}

Query: Evaluate C=CC(=O)N1CCN(c2nc(OC[C@@H]3CCCN3C)nc3c2CC[C@@H](c2cc(O)cc4ccccc24)C3)C[C@H]1CC#N (single isomer, unassigned) [Example 58e] : pEC50 at minimum 6?
Response: Condition met

---

Experiment Summary: Whole blood stability assay
Type: in vitro ADME
Settings: fresh whole blood, drug 1 μM, 37° C., 180 minutes incubation
Note to self: use MET only for half-life at 1 μM readings below 5 h; a reading exactly at 5 h still gets NOT MET.

Known results for compounds:
{"Compound": "C=C(F)C(=O)N1CCN(c2nc(OC[C@@H]3C[C@@H](F)CN3C)nc3c2C[C@@H](C)[C@H](c2c(F)c(N)cc(C)c2C(F)(F)F)C3)C[C@@H]1CC#N (single isomer, unassigned) [Example 38b]", "Label": "NOT MET"}
{"Compound": "CN(C)C/C=C/C(=O)Nc1cc2c(Nc3ccc(F)c(Cl)c3)ncnc2cc1O[C@H]1CCOC1 [Afatinib, reference compound]", "Label": "MET"}
{"Compound": "C=CC(=O)N1CCN(c2nc(OC[C@@H]3C[C@@H](F)CN3C)nc3c2C[C@@H](CC)[C@H](c2c(F)c(N)cc(C)c2C(F)(F)F)C3)[C@@H](C)C1 (single isomer, unassigned) [Example 37a]", "Label": "NOT MET"}
{"Compound": "C=CC(=O)N1CCN(c2nc(OC[C@@H]3C[C@@H](F)CN3C)nc3c2C[C@@H](C)[C@H](c2c(F)c(N)cc(C)c2C(F)(F)F)C3)[C@@H](C)C1 (single isomer, unassigned) [Example 36b]", "Label": "NOT MET"}
{"Compound": "C=CC(=O)N1CCN(c2nc(OC[C@@H]3CCCN3C)nc3c2C[C@@H](C)[C@H](c2nc(N)ccc2C(F)(F)F)C3)[C@@H](C)C1 (single isomer, unassigned) [Example 41b]", "Label": "MET"}
{"Compound": "C=CC(=O)N1CCN(c2nc(OC[C@@H]3CCCN3C)nc3c2C[C@@H](C)[C@H](c2c(C(F)(F)F)ccc(N)c2F)C3)[C@@H](C)C1 (single isomer, unassigned) [Example 23b]", "Label": "MET"}
{"Compound": "C=CC(=O)N1CCN(c2nc(OC[C@@H]3CCCN3C)nc3c2C[C@@H](C)[C@H](c2c(F)c(N)cc(C)c2C(F)(F)F)C3)[C@@H](C)C1 (single isomer, unassigned) [Example 12b]", "Label": "NOT MET"}
{"Compound": "C=CC(=O)N1CCN(c2nc(OC[C@@H]3CCCN3C)nc3c2C[C@@H](C)[C@H](c2cccc4c2CCC4)C3)C[C@H]1CC#N (single isomer, unassigned) [Example 35b]", "Label": "MET"}

Query: Could you please tell me whether half-life at 1 μM recorded for C=CC(=O)N1CCN(c2nc(OC[C@@H]3CCCN3C)nc3c2CC[C@H](c2cc(O)cc4ccccc24)C3)[C@@H](C)C1 (single isomer, unassigned) [Example 28b] is less than 5 h?
Response: NOT MET

Query: Could you please tell me whether half-life at 1 μM recorded for C=C(F)C(=O)N1CCN(c2nc(OC[C@@H]3CCCN3C)nc3c2C[C@@H](C)[C@H](c2c(F)c(N)cc(C)c2C(F)(F)F)C3)C[C@@H]1CC#N (single isomer, unassigned) [Example 34c] is less than 5 h?
Response: NOT MET

Query: Could you please tell me whether half-life at 1 μM recorded for C=C(F)C(=O)N1CCN(c2nc(OC[C@@H]3C[C@@H](F)CN3C)nc3c2C[C@@H](C)[C@H](c2c(F)c(N)cc(C)c2C(F)(F)F)C3)C[C@H]1CC#N (single isomer, unassigned) [Example 38c] is less than 5 h?
Response: MET

Query: Could you please tell me whether half-life at 1 μM recorded for C=CC(=O)N1CCN(c2nc(OC[C@@H]3C[C@@H](F)CN3C)nc3c2CC[C@H](c2cc(O)cc4ccccc24)C3)[C@@H](C)C1 (single isomer, unassigned) [Example 31a] is less than 5 h?
Response: NOT MET

Query: Could you please tell me whether half-life at 1 μM recorded for C=CC(=O)N1CCN(c2nc(OC[C@@H]3CCCN3C)nc3c2C[C@@H](C)[C@H](c2cccc4c2CCC4)C3)C[C@@H]1CC#N (single isomer, unassigned) [Example 35d] is less than 5 h?
Response: MET

Query: Could you please tell me whether half-life at 1 μM recorded for C=CC(=O)N1CCN(c2nc(OC[C@@H]3CCCN3C)nc3c2C[C@@H](C)[C@H](c2nc(N)cc(C)c2C(F)(F)F)C3)CC1 (single isomer, unassigned) [Example 20a] is less than 5 h?
Response: MET
